Can you tell me log10 GI50 of drug for the items I'm about to list?
# Tested on: CAKI-1
# Measurement notes: GI50 of drug in presence of dasatinib; higher = less potent
# Assay conditions: treatment: drug + dasatinib (fixed dose, not stated); 5 days
For clarity, the numbers are log10 values of GI50 of drug expressed in nM.

COc1cc2ncnc(Nc3ccc(F)c(Cl)c3)c2cc1NC(=O)/C=C/CN1CCCCC1 + Cc1nc(Nc2ncc(C(=O)Nc3c(C)cccc3Cl)s2)cc(N2CCN(CCO)CC2)n1 [dasatinib] tested on CAKI-1 gave log10 GI50 of drug: 2.69

Reading of log10 GI50 of drug for Cc1[nH]c(/C=C2/C(=O)Nc3ccc(S(=O)(=O)N(C)c4cccc(Cl)c4)cc32)c(C)c1C(=O)N1CCN(C)CC1 + Cc1nc(Nc2ncc(C(=O)Nc3c(C)cccc3Cl)s2)cc(N2CCN(CCO)CC2)n1 [dasatinib] with CAKI-1: 3.49

Record COc1cc2c(Nc3ccc(NC(=O)c4ccccc4)cc3)ncnc2cc1OCCCN1CCOCC1 + Cc1nc(Nc2ncc(C(=O)Nc3c(C)cccc3Cl)s2)cc(N2CCN(CCO)CC2)n1 [dasatinib] ; system CAKI-1; log10 GI50 of drug = 2.59

Fill in: CAKI-1 log10 GI50 of drug for CNC(=O)Nc1ccc(-c2nc(N3CC4CCC(C3)O4)c3cnn(C4CCC5(CC4)OCCO5)c3n2)cc1 + Cc1nc(Nc2ncc(C(=O)Nc3c(C)cccc3Cl)s2)cc(N2CCN(CCO)CC2)n1 [dasatinib] = 1.22

Clc1ccc(C2(c3ccc(-c4cn[nH]c4)cc3)CCNCC2)cc1 [AT7867] + Cc1nc(Nc2ncc(C(=O)Nc3c(C)cccc3Cl)s2)cc(N2CCN(CCO)CC2)n1 [dasatinib] on CAKI-1 gives log10 GI50 of drug = 2.88

Bench note, CAKI-1: entry O=c1cc(-c2cccc3c2Sc2ccccc2S3)oc(N2CCOCC2)c1 + Cc1nc(Nc2ncc(C(=O)Nc3c(C)cccc3Cl)s2)cc(N2CCN(CCO)CC2)n1 [dasatinib] , its log10 GI50 of drug = 3.63
